Data provenance: patent US20230265116A1

Molecular target: EGFR L858R/C797S (BaF3 LC cells) (Homo sapiens, UniProt P00533, C797S/L858R)
Construct: expressed in transfected cells; host or cells: BaF3
Sequence (P00533 25-1210 C797S/L858R): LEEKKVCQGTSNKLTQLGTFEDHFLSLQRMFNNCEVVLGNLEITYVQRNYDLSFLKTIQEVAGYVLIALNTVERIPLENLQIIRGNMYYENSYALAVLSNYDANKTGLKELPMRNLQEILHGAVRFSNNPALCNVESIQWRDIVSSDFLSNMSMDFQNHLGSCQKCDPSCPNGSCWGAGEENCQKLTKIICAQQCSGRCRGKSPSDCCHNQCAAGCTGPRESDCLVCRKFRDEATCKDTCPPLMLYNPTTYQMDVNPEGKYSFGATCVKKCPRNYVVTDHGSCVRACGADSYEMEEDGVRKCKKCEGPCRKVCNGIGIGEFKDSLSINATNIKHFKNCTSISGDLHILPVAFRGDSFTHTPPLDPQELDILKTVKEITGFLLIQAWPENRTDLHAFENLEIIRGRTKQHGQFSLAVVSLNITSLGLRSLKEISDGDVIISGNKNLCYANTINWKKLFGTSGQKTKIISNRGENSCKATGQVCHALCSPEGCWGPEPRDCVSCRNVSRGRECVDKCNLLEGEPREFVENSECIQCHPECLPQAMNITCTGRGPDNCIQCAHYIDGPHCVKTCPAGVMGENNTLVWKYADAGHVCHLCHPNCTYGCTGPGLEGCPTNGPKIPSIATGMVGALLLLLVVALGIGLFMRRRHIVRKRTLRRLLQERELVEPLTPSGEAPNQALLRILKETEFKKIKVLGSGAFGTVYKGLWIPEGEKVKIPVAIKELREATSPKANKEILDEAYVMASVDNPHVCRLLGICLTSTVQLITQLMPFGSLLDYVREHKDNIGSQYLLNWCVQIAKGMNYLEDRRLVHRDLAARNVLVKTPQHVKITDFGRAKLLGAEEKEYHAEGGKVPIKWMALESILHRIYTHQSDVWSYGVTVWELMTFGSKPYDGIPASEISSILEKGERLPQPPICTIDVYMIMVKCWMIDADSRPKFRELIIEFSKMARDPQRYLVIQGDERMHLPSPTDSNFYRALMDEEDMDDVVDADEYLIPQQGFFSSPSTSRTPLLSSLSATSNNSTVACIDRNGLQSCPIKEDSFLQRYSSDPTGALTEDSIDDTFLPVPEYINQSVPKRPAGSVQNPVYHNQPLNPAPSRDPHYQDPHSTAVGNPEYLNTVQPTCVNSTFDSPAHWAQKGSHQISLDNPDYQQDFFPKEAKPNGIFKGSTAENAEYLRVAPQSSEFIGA
Assay: EGFR degradation HTRF assay, BaF3 LC cells
Format: cell-based
Conditions: BaF3 LC, 16h treatment; read-out: BaF3 LC DC50
METRIC_NAME: DC50 (nM)
Reply with just the number (in nM).

COMPOUND: CCOc1cc(N2CCC(N3CCN(CCc4cc(F)c([C@H]5CCC(=O)NC5=O)c(F)c4)CC3)CC2)c(CC)cc1Nc1ncc(Br)c(Nc2cc(F)c3nc(CC)ccc3c2P(C)(C)=O)n1
RESULT_VALUE: 16.6

COMPOUND: CCOc1cc(N2CCC(N3CCN(CCc4ccc5c(c4)oc(=O)n5C4CCC(=O)NC4=O)CC3)CC2)c(CC)cc1Nc1ncc(Br)c(Nc2ccc3nc(CC)ccc3c2P(C)(C)=O)n1 (stereo not shown)
RESULT_VALUE: 6.88

COMPOUND: CCOc1cc(N2CCC(N3CCN(C(=O)[C@@H]4CCN(c5cc(F)c([C@H]6CCC(=O)NC6=O)c(F)c5)C4)CC3)CC2)c(CC)cc1Nc1ncc(Br)c(Nc2ccc3nc(C)ccc3c2P(C)(C)=O)n1
RESULT_VALUE: 51.8

COMPOUND: CCOc1cc(N2CCC(N3CCN(CCc4c(F)ccc5c4n(C)c(=O)n5C4CCC(=O)NC4=O)CC3)CC2)c(CC)cc1Nc1ncc(Br)c(Nc2ccc3nc(CC)ccc3c2P(C)(C)=O)n1 (stereo not shown)
RESULT_VALUE: 7.53

COMPOUND: CCc1cc(Nc2ncc(Br)c(Nc3ccc4nc(C)ccc4c3P(C)(C)=O)n2)c(OC)cc1N1CCC(N2CCN(CCc3cccc4c3oc(=O)n4C3CCC(=O)NC3=O)CC2)CC1 (stereo not shown)
RESULT_VALUE: 22.5

COMPOUND: CCOc1cc(N2CCC(N3CCN(CCCc4cc(F)cc5c4oc(=O)n5C4CCC(=O)NC4=O)CC3)CC2)c(CC)cc1Nc1ncc(Br)c(Nc2ccc3nc(CC)ccc3c2P(C)(C)=O)n1 (stereo not shown)
RESULT_VALUE: 2.23

Next:
**Q:** Please respond with reported DC50 (system EGFR L858R/C797S (BaF3 LC cells) (Homo sapiens, UniProt P00533, C797S/L858R)) for CCOc1cc(N2CCC(N3CCN(CCc4cccc5c4oc(=O)n5C4CCC(=O)NC4=O)CC3)CC2)c(CC)cc1Nc1ncc(Br)c(Nc2ccc3c(=O)n(CC)ncc3c2P(C)(C)=O)n1 (stereo not shown) .
**A:** 121

----------
The entries below are paired with their reported Dmax.
Biological target: EGFR L858R/T790M/C797S (BaF3-LTC cells) (Homo sapiens, UniProt P00533, C797S/L858R/T790M)
Construct: expressed in transfected cells; host or cells: BaF3
Sequence (P00533 25-1210 T790M/C797S/L858R): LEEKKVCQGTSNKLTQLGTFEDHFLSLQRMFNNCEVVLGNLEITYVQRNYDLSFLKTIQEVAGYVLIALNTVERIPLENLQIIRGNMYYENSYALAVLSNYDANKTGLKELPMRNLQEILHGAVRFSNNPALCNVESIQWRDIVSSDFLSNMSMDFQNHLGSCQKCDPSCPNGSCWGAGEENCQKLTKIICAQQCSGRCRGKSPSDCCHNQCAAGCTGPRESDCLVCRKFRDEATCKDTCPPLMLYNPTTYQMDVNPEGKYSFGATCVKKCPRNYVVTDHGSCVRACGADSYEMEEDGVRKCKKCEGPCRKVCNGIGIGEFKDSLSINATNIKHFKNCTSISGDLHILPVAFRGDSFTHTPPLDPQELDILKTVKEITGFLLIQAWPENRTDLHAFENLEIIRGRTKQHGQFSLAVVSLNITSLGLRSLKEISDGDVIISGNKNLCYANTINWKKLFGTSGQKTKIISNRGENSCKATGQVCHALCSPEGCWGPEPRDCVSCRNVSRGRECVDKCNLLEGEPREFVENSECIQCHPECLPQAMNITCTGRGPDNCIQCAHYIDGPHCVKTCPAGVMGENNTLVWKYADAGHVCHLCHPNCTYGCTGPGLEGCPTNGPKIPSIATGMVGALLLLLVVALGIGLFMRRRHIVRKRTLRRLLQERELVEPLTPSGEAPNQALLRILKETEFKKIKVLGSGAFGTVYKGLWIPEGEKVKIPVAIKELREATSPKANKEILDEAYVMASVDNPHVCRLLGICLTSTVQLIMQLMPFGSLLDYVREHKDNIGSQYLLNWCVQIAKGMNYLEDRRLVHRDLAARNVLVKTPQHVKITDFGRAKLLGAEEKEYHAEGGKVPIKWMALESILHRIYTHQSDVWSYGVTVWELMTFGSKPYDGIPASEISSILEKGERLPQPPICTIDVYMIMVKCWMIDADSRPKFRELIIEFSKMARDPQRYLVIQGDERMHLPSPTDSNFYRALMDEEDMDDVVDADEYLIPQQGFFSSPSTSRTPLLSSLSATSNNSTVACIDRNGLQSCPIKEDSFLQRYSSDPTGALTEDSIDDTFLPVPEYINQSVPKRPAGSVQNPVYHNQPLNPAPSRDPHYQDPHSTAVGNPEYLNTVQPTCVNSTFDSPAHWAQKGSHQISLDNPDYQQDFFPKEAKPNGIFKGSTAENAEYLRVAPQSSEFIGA
Assay: EGFR degradation HTRF assay, BaF3-LTC cells
Assay type: cell-based
Details: BaF3-LTC, 16h treatment, maximum percentage of degradation; read-out: LTC Dmax (%)
A number alone suffices; assume %.

Guide cases for Dmax, answers given:
MOLECULE: CCc1cc(Nc2ncc(Br)c(Nc3ccc4nc(C)ccc4c3P(C)(C)=O)n2)c(OC)cc1N1CCC(N2CCN(C(=O)C34CCC(Nc5cc(F)c(C6CCC(=O)NC6=O)c(F)c5)(CC3)C4)CC2)CC1 (centres unmarked)
TESTED_ON: EGFR L858R/T790M/C797S (BaF3-LTC cells) (Homo sapiens, UniProt P00533, C797S/L858R/T790M)
Dmax / %: 89.2
//
MOLECULE: COc1cc(N2CCN(C3CN(C(=O)c4cnc(C(=O)Nc5ccc(C6CCC(=O)NC6=O)cc5)cn4)C3)CC2)c(C)cc1Nc1ncc(Br)c(Nc2ccc3nccnc3c2P(C)(C)=O)n1 (centres unmarked)
TESTED_ON: EGFR L858R/T790M/C797S (BaF3-LTC cells) (Homo sapiens, UniProt P00533, C797S/L858R/T790M)
Dmax / %: 81.7

**Q:** // fetch Dmax for CCc1cc(Nc2ncc(Br)c(Nc3ccc4nccnc4c3P(C)(C)=O)n2)c(OC)cc1N1CCC(N2CCN(C(=O)C3CN(c4ccc5c(c4)CN(C4CCC(=O)NC4=O)C5=O)C3)CC2)CC1 (centres unmarked) ; system: EGFR L858R/T790M/C797S (BaF3-LTC cells) (Homo sapiens, UniProt P00533, C797S/L858R/T790M)
**A:** 91

**Q:** State the measured Dmax (EGFR L858R/T790M/C797S (BaF3-LTC cells) (Homo sapiens, UniProt P00533, C797S/L858R/T790M)) of CCc1cc(Nc2ncc(Br)c(Nc3ccc4ncn(C)c(=O)c4c3P(C)(C)=O)n2)c(OC)cc1N1CCC(N2CCN(C(=O)C3CN(c4ccc5c(c4)CN(C4CCC(=O)NC4=O)C5=O)C3)CC2)CC1 (centres unmarked)
**A:** 88.6

**Q:** Report measured Dmax on EGFR L858R/T790M/C797S (BaF3-LTC cells) (Homo sapiens, UniProt P00533, C797S/L858R/T790M); entry: CCc1cc(Nc2ncc(Br)c(Nc3ccc4nccnc4c3P(C)(C)=O)n2)c(OC)cc1N1CCC(N2CCN(CCc3cccc4c3n(C)c(=O)n4C3CCC(=O)NC3=O)CC2)CC1 (centres unmarked)
**A:** 93.3

**Q:** Give measured Dmax for COc1cc(N2CCC(N3CCN(C(=O)CCCCN4CCN(c5ccc6c(c5)C(=O)N(C5CCC(=O)NC5=O)C6=O)CC4)CC3)CC2)ccc1Nc1ncc(Cl)c(Nc2ccccc2N(C)S(C)(=O)=O)n1 (centres unmarked) (EGFR L858R/T790M/C797S (BaF3-LTC cells) (Homo sapiens, UniProt P00533, C797S/L858R/T790M)).
**A:** 86.2

**Q:** State recorded Dmax with EGFR L858R/T790M/C797S (BaF3-LTC cells) (Homo sapiens, UniProt P00533, C797S/L858R/T790M), entry CCc1cc(Nc2ncc(Br)c(Nc3ccc4nc(C)ccc4c3P(C)(C)=O)n2)c(OC)cc1N1CCC(N2CCC(C(=O)N3CCC(c4cc(F)c(C5CCC(=O)NC5=O)c(F)c4)CC3)CC2)CC1 (centres unmarked) , no comment.
**A:** 92.4

**Q:** Please look at CCc1cc(Nc2ncc(Br)c(Nc3ccc4nccnc4c3P(C)(C)=O)n2)c(OC)cc1N1CCC(N2CCN(CCC3CCN(c4ccc5c(c4)CN(C4CCC(=O)NC4=O)C5=O)CC3)CC2)CC1 (centres unmarked) and tell me its recorded Dmax on EGFR L858R/T790M/C797S (BaF3-LTC cells) (Homo sapiens, UniProt P00533, C797S/L858R/T790M).
**A:** 95

**Q:** Report the value of Dmax obtained on EGFR L858R/T790M/C797S (BaF3-LTC cells) (Homo sapiens, UniProt P00533, C797S/L858R/T790M) for CCc1cc(Nc2ncc(Br)c(Nc3ccc4nc(C)ccc4c3P(C)(C)=O)n2)c(OC)cc1N1CCC(N2CCN(CCc3ccc4c(cnn4C4CCC(=O)NC4=O)c3)CC2)CC1 (centres unmarked) .
**A:** 91.4

**Q:** Specify the recorded Dmax for COc1cc(N2CCC(N3CCN(CCC4CCN(c5cc(F)c(C6CCC(=O)NC6=O)c(F)c5)CC4)CC3)CC2)c(C)cc1Nc1ncc(Br)c(Nc2ccc3nccnc3c2P(C)(C)=O)n1 (centres unmarked) , system: EGFR L858R/T790M/C797S (BaF3-LTC cells) (Homo sapiens, UniProt P00533, C797S/L858R/T790M).
**A:** 91.4

**Q:** Recall the reported Dmax of CCc1cc(Nc2ncc(Br)c(Nc3ccc4nccnc4c3P(C)(C)=O)n2)c(OC)cc1N1CCC(N2CCN(C3CCN(c4ccc(C5CCC(=O)NC5=O)cc4)C3)CC2)CC1 (centres unmarked) when tested on EGFR L858R/T790M/C797S (BaF3-LTC cells) (Homo sapiens, UniProt P00533, C797S/L858R/T790M).
**A:** 74.6

**Q:** Provide measured Dmax on EGFR L858R/T790M/C797S (BaF3-LTC cells) (Homo sapiens, UniProt P00533, C797S/L858R/T790M) for CCc1cc(Nc2ncc(Br)c(Nc3ccc4nccnc4c3P(C)(C)=O)n2)c(OC)cc1N1CCC(N2CCN(CCc3ccc(C4(C)CCC(=O)NC4=O)cc3)CC2)CC1 (centres unmarked) please.
**A:** 76

**Q:** Answer briefly: Dmax recorded on EGFR L858R/T790M/C797S (BaF3-LTC cells) (Homo sapiens, UniProt P00533, C797S/L858R/T790M) for CCc1cc(Nc2ncc(Br)c(Nc3ccc4ncccc4c3P(C)(C)=O)n2)c(OC)cc1N1CCC(N2CCN(CCc3cc(F)c(C4CCC(=O)NC4=O)c(F)c3)CC2)CC1 (centres unmarked)
**A:** 92

**Q:** Look up EGFR L858R/T790M/C797S (BaF3-LTC cells) (Homo sapiens, UniProt P00533, C797S/L858R/T790M) data: Dmax of CCc1cc(Nc2ncc(Br)c(Nc3ccc4nccnc4c3P(C)(C)=O)n2)c(OC)cc1N1CCC(N2CCN(CC3CCN(c4cc(F)c(C5CCC(=O)NC5=O)c(F)c4)CC3)CC2)CC1 (centres unmarked) , then report it.
**A:** 86.7

**Q:** Fill in: Dmax on EGFR L858R/T790M/C797S (BaF3-LTC cells) (Homo sapiens, UniProt P00533, C797S/L858R/T790M), entry CCc1cc(Nc2ncc(Br)c(Nc3ccc4nccnc4c3P(C)(C)=O)n2)c(OC)cc1N1CCC(N2CCN(CC3CN(c4ccc(C5CCC(=O)NC5=O)c(F)c4)C3)CC2)CC1 (centres unmarked)
**A:** 80.8

**Q:** Return reported Dmax for target or system EGFR L858R/T790M/C797S (BaF3-LTC cells) (Homo sapiens, UniProt P00533, C797S/L858R/T790M), item COc1cc(N2CCN(C3CN(CCC4CCN(c5cc(F)c(C6CCC(=O)NC6=O)c(F)c5)CC4)C3)CC2)c(C)cc1Nc1ncc(Br)c(Nc2ccc3nccnc3c2P(C)(C)=O)n1 (centres unmarked) .
**A:** 85.7

**Q:** // output Dmax; input CCc1cc(Nc2ncc(Br)c(Nc3ccc4nccnc4c3P(C)(C)=O)n2)c(OC)cc1N1CCC(N2CCN(C(=O)C3CCN(c4ccc5c(c4)C(=O)N(C4CCC(=O)NC4=O)C5=O)CC3)CC2)CC1 (centres unmarked) ; system EGFR L858R/T790M/C797S (BaF3-LTC cells) (Homo sapiens, UniProt P00533, C797S/L858R/T790M)
**A:** 87.9

**Q:** Look up and report measured Dmax (EGFR L858R/T790M/C797S (BaF3-LTC cells) (Homo sapiens, UniProt P00533, C797S/L858R/T790M)) for the following molecule: CCc1cc(Nc2ncc(Br)c(Nc3ccc4nccnc4c3P(C)(C)=O)n2)c(OC)cc1N1CCC(N2CCN(CCc3ccc(NC4CCC(=O)NC4=O)cc3)CC2)CC1 (centres unmarked)
**A:** 90.4

**Q:** Give Dmax for this entry on EGFR L858R/T790M/C797S (BaF3-LTC cells) (Homo sapiens, UniProt P00533, C797S/L858R/T790M): COc1cc(N2CCC(N3CCN(CCC4CCN(c5cc(F)c(C6CCC(=O)NC6=O)c(F)c5)CC4)CC3)CC2)ccc1Nc1ncc(Br)c(Nc2ccc3nc(C)ccc3c2P(C)(C)=O)n1 (centres unmarked)
**A:** 87.3

**Q:** Given CCc1cc(Nc2ncc(Br)c(Nc3ccc4nccnc4c3P(C)(C)=O)n2)c(OC)cc1N1CCC(N2CCN(C(=O)C3CCN(c4ccc5c(c4)C(C)(C)C(=O)N5C4CCC(=O)NC4=O)CC3)CC2)CC1 (centres unmarked) , report its Dmax on EGFR L858R/T790M/C797S (BaF3-LTC cells) (Homo sapiens, UniProt P00533, C797S/L858R/T790M).
**A:** 87.5
